- TARGET DESC: Serine/threonine-protein kinase Nek2 (Homo sapiens, UniProt P51955)
- Sequence (P51955 whole entry): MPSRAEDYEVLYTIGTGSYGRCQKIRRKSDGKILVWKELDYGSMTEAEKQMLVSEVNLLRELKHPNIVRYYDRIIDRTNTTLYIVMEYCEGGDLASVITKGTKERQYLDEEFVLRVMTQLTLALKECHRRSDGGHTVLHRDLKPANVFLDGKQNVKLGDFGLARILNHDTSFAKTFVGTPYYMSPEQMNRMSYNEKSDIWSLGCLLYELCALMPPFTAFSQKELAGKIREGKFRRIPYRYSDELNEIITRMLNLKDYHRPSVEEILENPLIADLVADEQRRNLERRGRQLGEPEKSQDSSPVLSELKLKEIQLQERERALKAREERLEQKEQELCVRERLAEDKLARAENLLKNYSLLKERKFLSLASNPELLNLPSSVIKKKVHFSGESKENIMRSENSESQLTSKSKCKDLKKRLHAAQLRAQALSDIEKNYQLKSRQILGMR
pIC50: −log10 of the molar value.
ENDPOINT NAME: pIC50

Check the records and state pIC50 for COc1ncc(F)cc1CNc1ccc(Cc2c[nH]c3ncc(C)cc23)c(F)n1
< 6.00
